- ASSAY_SYSTEM: T1, rhesus monkey PLD4 (rhesus monkey, UniProt Q96BZ4 1-506 (human entry))
- T1 construct: also called rhesus monkey PLD4 protein
- T1 chain: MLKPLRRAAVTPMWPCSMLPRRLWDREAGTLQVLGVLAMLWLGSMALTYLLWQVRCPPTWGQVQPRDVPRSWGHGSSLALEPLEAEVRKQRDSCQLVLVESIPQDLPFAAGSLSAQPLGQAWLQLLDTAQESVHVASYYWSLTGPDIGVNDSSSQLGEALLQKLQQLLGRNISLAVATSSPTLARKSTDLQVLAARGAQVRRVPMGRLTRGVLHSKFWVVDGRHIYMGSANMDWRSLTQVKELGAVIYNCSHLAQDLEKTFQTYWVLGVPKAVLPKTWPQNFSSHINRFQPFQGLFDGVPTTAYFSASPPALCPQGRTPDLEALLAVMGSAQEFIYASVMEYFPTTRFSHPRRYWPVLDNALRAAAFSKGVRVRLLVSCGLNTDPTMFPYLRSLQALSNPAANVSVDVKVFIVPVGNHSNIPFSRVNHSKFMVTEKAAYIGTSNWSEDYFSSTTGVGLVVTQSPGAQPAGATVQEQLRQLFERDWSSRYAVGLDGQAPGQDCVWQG
- TEST_PROTOCOL: FACS on rhesus monkey PBMC, pDC population (FIG. 18-1, 18-2)
QUANTITY_KIND: binding result

INSERT INTO results (binder, result_value) VALUES
  ('anti-PLD4 mouse 13D4 antibody (antibody, mouse IgG2b, V domains shown, Tested as hybridoma culture supernatant and as purified antibody; also called mp13D4 (hybridoma)) VH: DVQLQESGPGLVKPSQSLSLTCSVTGYSITSHYYWTWIRQFPGNKLEWMGYISYDGSNNYNPSLKNRISITRDTSKNQFFLKLNSVTTEDTATYNCAREGPLYYGNPYWYFDVWGAGTTVTVSS VL: DIQMTQTTSSLSASLGDRVTISCRASQDIDNYLNWYQQKPDGTVKLLIYYTSRLHSGVPSRFSGSGSGTDYSLTISNLEQEDVATYFCQQFNTLPRTFGGGTKLEIKR', 'binds');
